pKi: −log10 of the molar value.
Here we gather pKi data for Cytochrome P450 3A4 (Homo sapiens, UniProt P08684) reported by several publications.
Category key, based on recorded pKi: low: < 4; moderate: ≥ 4 and < 5; high: ≥ 5

Would you please look over these solved cases?
{"Smiles Structure": "CN(C)Cc1ccc(-c2cccnc2)o1", "Assigned Class": "low"}
{"Smiles Structure": "c1cncc(-c2ccsc2)c1", "Assigned Class": "moderate"}
{"Smiles Structure": "COc1c(N2CC[C@@H](C3(N)CC3)C2)ccc2c(=O)c(C(=O)O)cn([C@@H]3C[C@@H]3F)c12", "Assigned Class": "moderate"}
{"Smiles Structure": "NCc1ccc(-c2cccnc2)s1", "Assigned Class": "moderate"}
{"Smiles Structure": "CN1CCN(c2nc(C3=C(c4c[nH]c5ccccc45)C(=O)NC3=O)c3ccccc3n2)CC1", "Assigned Class": "high"}

Assign a category based on measured pKi for c1cncc(-c2ccc(C3SCCS3)o2)c1 and give only the class name. high

Same lookup for CNCc1ccc(-c2cccnc2)o1 , please. low

Same lookup for Cc1ccsc1-c1ccc(F)nc1 , please. moderate
